subject_of_test: MtbCoaBC (Mycobacterium tuberculosis, UniProt P9WNZ1)
Sequence (P9WNZ1 whole entry): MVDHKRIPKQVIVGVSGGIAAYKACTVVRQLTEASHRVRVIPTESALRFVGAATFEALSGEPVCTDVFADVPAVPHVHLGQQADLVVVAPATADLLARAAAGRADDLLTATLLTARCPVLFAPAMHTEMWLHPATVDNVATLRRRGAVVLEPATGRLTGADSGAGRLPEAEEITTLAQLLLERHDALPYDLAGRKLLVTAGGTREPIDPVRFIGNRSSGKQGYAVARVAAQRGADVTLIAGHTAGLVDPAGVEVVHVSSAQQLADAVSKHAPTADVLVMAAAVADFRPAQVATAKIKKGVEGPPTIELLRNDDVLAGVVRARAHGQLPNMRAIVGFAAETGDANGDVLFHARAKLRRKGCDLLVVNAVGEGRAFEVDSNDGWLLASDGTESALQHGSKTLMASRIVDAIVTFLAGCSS
test_details: Competition assays, first half of CoaB reaction (EnzChek, variable CTP or PPA)
Assay type: biochemical
experimental_conditions: variable substrate PPA
reported_endpoint: Ki (µM)

>>> print(df.to_string())
                         chemical_structure  reported_endpoint  unit_of_measure  value
0  CC(=O)SCCNC(=O)CCNC(=O)[C@H](O)C(C)(C)COP(=O)(O)OP(=O)(O)OC[C@H]1O[C@@H](n2cnc3c(N)ncnc32)[C@H](O)[C@@H]1OP(=O)(O)O                 Ki               µM   22.4

Origin of the recorded values: paper PMC7794376
